pIC50 for IRAK4 (Homo sapiens (Human)), merged from several publications.
pIC50: −log10 of the molar value.
property_name: pIC50

smiles_entry	result
Cn1cc(-c2cccc(-c3ncc(-c4ccn(C)n4)c(NC4CC(F)(F)C4)n3)c2)cn1	< 5.30
O=C(Nc1nc(CCC(=O)N2CCCCC2)cn1-c1ccccc1)c1cccc(-c2cn[nH]c2)c1	> 7.30
NC(=O)C[C@H]1CCc2sc3ncnc(OCC4CCNCC4)c3c21	4.70 to 5.30
CC(=O)N1CCC(NC(=O)c2cc(Nc3nc(N[C@H]4CC[C@](C)(O)CC4)c4sccc4n3)sn2)CC1	6.00 to 7.00
C=CC(=O)N1CCC[C@H](c2nc(-c3ccc(NC(=O)c4cccc(-c5ccn[nH]5)n4)nc3)no2)C1	< 5.00
C[C@H]1CCCCN1C(=O)CCCCc1cn(-c2ccccc2)c(NC(=O)c2cccc(-c3cn[nH]c3)c2)n1	7.00 to 7.30
